B1: CDC25B (parent)
chain: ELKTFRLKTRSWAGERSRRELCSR

- Variants of: B1
- Method: protein stability index of a GFP-peptide fusion (GPS, HEK-293T) (PSI 1-6); higher = more stable;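 also: lentivirally expressed fusions sorted by FACS into six bins by GFP to DsRed ratio, PSI derived from sequencing read proportions per bin multiplied by bin number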
- Measurement Setup: c terminus: a fixed tail appended
Measurement Kind: protein stability index
Could you keep your reply to the number by itself?

Reference set, count: 2
| Variant Designation | Value |
| --- | --- |
| K8Y | 2.71 |
| G14Q | 2.58 |

# lookup: protein stability index of "W12H"
3.64

# lookup: protein stability index of "W12G"
3.54

# lookup: protein stability index of "S23A"
3.02

# lookup: protein stability index of "E15N"
2.66
